Values compiled from paper PMC3626250.

Catalogue of molecules with associated CL/F
Experiment: Pharmacokinetics study in rabbits after oral Panax notoginseng extract with or without Borneol (plasma, SPE-HPLC-MS)
Format: in vivo, New Zealand rabbits
Settings: New Zealand, rabbit, plasma, oral 3.0 mL·kg^−1 Panax notoginseng extract, read-out: CL/F
Answer in mL/min/kg, number only, no unit symbol.

molecule	unitAnnotation	CL/F
CC(C)=CCC[C@](C)(O[C@@H]1O[C@H](CO)[C@@H](O)[C@H](O)[C@H]1O)[C@H]1CC[C@]2(C)[C@@H]1[C@H](O)C[C@@H]1[C@@]3(C)CC[C@H](O)C(C)(C)[C@@H]3[C@@H](O[C@@H]3O[C@H](CO)[C@@H](O)[C@H](O)[C@H]3O[C@@H]3O[C@@H](C)[C@H](O)[C@@H](O)[C@H]3O)C[C@]12C [GRe, ginsenoside Re]	mL/min/kg	150

# ---- query molecule ----
Give me measured CL/F, please, for this molecule: CC(C)=CCC[C@](C)(O[C@@H]1O[C@H](CO)[C@@H](O)[C@H](O)[C@H]1O)[C@H]1CC[C@]2(C)[C@@H]1[C@H](O)C[C@@H]1[C@@]3(C)CC[C@H](O)C(C)(C)[C@@H]3[C@@H](O[C@@H]3O[C@H](CO)[C@@H](O)[C@H](O)[C@H]3O)C[C@]12C [GRg1, ginsenoside Rg1]
123

* * *

Assay: Tissue distribution study in rabbits after oral Panax notoginseng extract with or without Borneol
Format: in vivo, New Zealand rabbits
Settings: New Zealand, rabbit, liver, po, 3 mL·kg^−1, 0.5 h, oral Panax notoginseng, read-out: Concentration in liver
measuredAttribute: concentration at 0.5 h (ng/g)
Give just the number in ng/g; leave the unit off.

compound	concentration at 0.5 h, ng/g
CC(C)=CCC[C@](C)(O[C@@H]1O[C@H](CO)[C@@H](O)[C@H](O)[C@H]1O)[C@H]1CC[C@]2(C)[C@@H]1[C@H](O)C[C@@H]1[C@@]3(C)CC[C@H](O)C(C)(C)[C@@H]3[C@@H](O[C@@H]3O[C@H](CO)[C@@H](O)[C@H](O)[C@H]3O)C[C@]12C [GRg1, ginsenoside Rg1]	8480

Consider the additional compound presented here.
Return reported concentration at 0.5 h. Input compound: CC(C)=CCC[C@](C)(O[C@@H]1O[C@H](CO)[C@@H](O)[C@H](O)[C@H]1O)[C@H]1CC[C@]2(C)[C@@H]1[C@H](O)C[C@@H]1[C@@]3(C)CC[C@H](O)C(C)(C)[C@@H]3[C@@H](O[C@@H]3O[C@H](CO)[C@@H](O)[C@H](O)[C@H]3O[C@@H]3O[C@@H](C)[C@H](O)[C@@H](O)[C@H]3O)C[C@]12C [GRe, ginsenoside Re]
990

* * *

Quick reference for concentration at 1 h among some molecules
Assay: Tissue distribution study in rabbits after oral Panax notoginseng extract with or without Borneol
Format: in vivo, New Zealand rabbits
Conditions: New Zealand, rabbit, heart, po, 3 mL·kg^−1, 1.0 h, oral Panax notoginseng, read-out: Concentration in heart
Report only the number, with the unit ng/g understood.

Determine its reported concentration at 1 h: CC(C)=CCC[C@](C)(O[C@@H]1O[C@H](CO)[C@@H](O)[C@H](O)[C@H]1O)[C@H]1CC[C@]2(C)[C@@H]1[C@H](O)C[C@@H]1[C@@]3(C)CC[C@H](O)C(C)(C)[C@@H]3[C@@H](O[C@@H]3O[C@H](CO)[C@@H](O)[C@H](O)[C@H]3O[C@@H]3O[C@@H](C)[C@H](O)[C@@H](O)[C@H]3O)C[C@]12C [GRe, ginsenoside Re]
2110

Write down concentration at 1 h measured for item CC(C)=CCC[C@](C)(O[C@@H]1O[C@H](CO)[C@@H](O)[C@H](O)[C@H]1O)[C@H]1CC[C@]2(C)[C@@H]1[C@H](O)C[C@@H]1[C@@]3(C)CC[C@H](O)C(C)(C)[C@@H]3[C@@H](O[C@@H]3O[C@H](CO)[C@@H](O)[C@H](O)[C@H]3O)C[C@]12C [GRg1, ginsenoside Rg1]
2940

* * *

In this section we review reported Noncytotoxic concentration values for a set of compounds.
Tested on: Caco-2 cells
Test: MTT cytotoxicity assay toward Caco-2 cells
Assay type: cell-based
Details: chosen for transport study
# output: bare number, implied unit µM

compound	unitAnnotation	Noncytotoxic concentration
CC(C)=CCC[C@](C)(O[C@@H]1O[C@H](CO)[C@@H](O)[C@H](O)[C@H]1O)[C@H]1CC[C@]2(C)[C@@H]1[C@H](O)C[C@@H]1[C@@]3(C)CC[C@H](O)C(C)(C)[C@@H]3[C@@H](O[C@@H]3O[C@H](CO)[C@@H](O)[C@H](O)[C@H]3O[C@@H]3O[C@@H](C)[C@H](O)[C@@H](O)[C@H]3O)C[C@]12C [GRe, ginsenoside Re]	µM	500
CC(C)=CCC[C@](C)(O[C@@H]1O[C@H](CO)[C@@H](O)[C@H](O)[C@H]1O)[C@H]1CC[C@]2(C)[C@@H]1[C@H](O)C[C@@H]1[C@@]3(C)CC[C@H](O)C(C)(C)[C@@H]3[C@@H](O[C@@H]3O[C@H](CO)[C@@H](O)[C@H](O)[C@H]3O[C@@H]3OC[C@@H](O)[C@H](O)[C@H]3O)C[C@]12C [NGR1, notoginsenoside R1]	µM	500
CC1(C)C2CCC1(C)C(O)C2 (stereo not shown) [Borneol]	µM	200

Next, consider the following compound.
Please report the measured Noncytotoxic concentration for CC(C)=CCC[C@](C)(O[C@@H]1O[C@H](CO)[C@@H](O)[C@H](O)[C@H]1O)[C@H]1CC[C@]2(C)[C@@H]1[C@H](O)C[C@@H]1[C@@]3(C)CC[C@H](O)C(C)(C)[C@@H]3[C@@H](O[C@@H]3O[C@H](CO)[C@@H](O)[C@H](O)[C@H]3O)C[C@]12C [GRg1, ginsenoside Rg1]
500

* * *

// reported concentration at 3 h for each item listed
Assay: Tissue distribution study in rabbits after oral Panax notoginseng extract with or without Borneol
Type: in vivo, New Zealand rabbits
Conditions: New Zealand, rabbit, heart, po, 3 mL·kg^−1, 3.0 h, oral Panax notoginseng with Borneol, read-out: Concentration in heart
Give the value in ng/g but do not write ng/g after it.

compound	concentration at 3 h (ng/g)
CC(C)=CCC[C@](C)(O[C@@H]1O[C@H](CO)[C@@H](O)[C@H](O)[C@H]1O)[C@H]1CC[C@]2(C)[C@@H]1[C@H](O)C[C@@H]1[C@@]3(C)CC[C@H](O)C(C)(C)[C@@H]3[C@@H](O[C@@H]3O[C@H](CO)[C@@H](O)[C@H](O)[C@H]3O)C[C@]12C [GRg1, ginsenoside Rg1]	19100

Please examine the following record next.
Look up concentration at 3 h of CC(C)=CCC[C@](C)(O[C@@H]1O[C@H](CO)[C@@H](O)[C@H](O)[C@H]1O)[C@H]1CC[C@]2(C)[C@@H]1[C@H](O)C[C@@H]1[C@@]3(C)CC[C@H](O)C(C)(C)[C@@H]3[C@@H](O[C@@H]3O[C@H](CO)[C@@H](O)[C@H](O)[C@H]3O[C@@H]3O[C@@H](C)[C@H](O)[C@@H](O)[C@H]3O)C[C@]12C [GRe, ginsenoside Re] and report it.
2240

* * *

Assay: Tissue distribution study in rabbits after oral Panax notoginseng extract with or without Borneol
Format: in vivo, New Zealand rabbits
Settings: New Zealand, rabbit, kidney, po, 3 mL·kg^−1, 3.0 h, oral Panax notoginseng with Borneol, read-out: Concentration in kidney
Consider the following compounds and their measured concentration at 3 h readings.
Kindly answer with a numeric value in ng/g, unit omitted.

compound	resultValue
CC(C)=CCC[C@](C)(O[C@@H]1O[C@H](CO)[C@@H](O)[C@H](O)[C@H]1O)[C@H]1CC[C@]2(C)[C@@H]1[C@H](O)C[C@@H]1[C@@]3(C)CC[C@H](O)C(C)(C)[C@@H]3[C@@H](O[C@@H]3O[C@H](CO)[C@@H](O)[C@H](O)[C@H]3O)C[C@]12C [GRg1, ginsenoside Rg1]	10200

Next compound, concentration at 3 h to be filled in.
Identify measured concentration at 3 h corresponding to CC(C)=CCC[C@](C)(O[C@@H]1O[C@H](CO)[C@@H](O)[C@H](O)[C@H]1O)[C@H]1CC[C@]2(C)[C@@H]1[C@H](O)C[C@@H]1[C@@]3(C)CC[C@H](O)C(C)(C)[C@@H]3[C@@H](O[C@@H]3O[C@H](CO)[C@@H](O)[C@H](O)[C@H]3O[C@@H]3O[C@@H](C)[C@H](O)[C@@H](O)[C@H]3O)C[C@]12C [GRe, ginsenoside Re]
1610

* * *

Experiment: Tissue distribution study in rabbits after oral Panax notoginseng extract with or without Borneol
Format: in vivo, New Zealand rabbits
Conditions: New Zealand, rabbit, kidney, po, 3 mL·kg^−1, 3.0 h, oral Panax notoginseng, read-out: Concentration in kidney
measuredAttribute: concentration at 3 h (ng/g)
A number alone suffices; assume ng/g.

compound	measuredAttribute	resultValue
CC(C)=CCC[C@](C)(O[C@@H]1O[C@H](CO)[C@@H](O)[C@H](O)[C@H]1O)[C@H]1CC[C@]2(C)[C@@H]1[C@H](O)C[C@@H]1[C@@]3(C)CC[C@H](O)C(C)(C)[C@@H]3[C@@H](O[C@@H]3O[C@H](CO)[C@@H](O)[C@H](O)[C@H]3O[C@@H]3O[C@@H](C)[C@H](O)[C@@H](O)[C@H]3O)C[C@]12C [GRe, ginsenoside Re]	concentration at 3 h	1150

Query compound follows.
Given the compound CC(C)=CCC[C@](C)(O[C@@H]1O[C@H](CO)[C@@H](O)[C@H](O)[C@H]1O)[C@H]1CC[C@]2(C)[C@@H]1[C@H](O)C[C@@H]1[C@@]3(C)CC[C@H](O)C(C)(C)[C@@H]3[C@@H](O[C@@H]3O[C@H](CO)[C@@H](O)[C@H](O)[C@H]3O)C[C@]12C [GRg1, ginsenoside Rg1] , write its reported concentration at 3 h.
3030
